- SYSTEM_NAME: extra domain B of oncofetal human fibronectin (ED-B) (human) (UniProt P02751)
- Sequence (P02751 1266-1356 limits assumed): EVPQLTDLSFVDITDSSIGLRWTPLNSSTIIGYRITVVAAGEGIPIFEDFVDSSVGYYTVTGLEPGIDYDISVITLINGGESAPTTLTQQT
- TEST_NAME: SPR, ED-B immobilised on the chip, pH 7.3, 1:1 Langmuir fit
Examples of binders with documented pKd follow.
# pKd is unitless: minus log10 of the molar concentration; print number only

Completed entries (count: 3):
| BINDER | pKd |
| --- | --- |
| LAEAKVLALKELDKYGISNYYKNLINNAKTIEGVKALKAQIVAA (designed binder, part only; not given: ED-B binding domain, linkers, tags, part only) [215652] | 9.40 |
| LAEAKVLAIKELDKAGISNYYFNLINNAKTVEGVKALKAQIVAA (designed binder, part only; not given: ED-B binding domain, linkers, tags, part only) [219089] | 9.52 |
| LAEAKVLALKELDKYGISNYYKNLINNAKTIEGVKALKAQILAA (designed binder, part only; not given: ED-B binding domain, linkers, tags, part only) [215665] | 10.00 |

**Q:** Look up and state reported pKd for LAEAKVLALKELDKYGISNYYKNLINNAKTIEGVKALKDEIVAA (designed binder, part only; not given: ED-B binding domain, linkers, tags, part only) [215671]
**A:** 10.00

**Q:** State, in one line, measured pKd of LAEAKVLALKELDKYGISNYYKNLINNAKTIEGVKALKDQIVAA (designed binder, part only; not given: ED-B binding domain, linkers, tags, part only) [215661]
**A:** 9.40

**Q:** Dear colleague, please send me the reported pKd for LAEAKVLALKELDKYGISNYYKNLINNAKTIEGVEALKEAIVAA (designed binder, part only; not given: ED-B binding domain, linkers, tags, part only) [215674] when you can.
**A:** 10.00

Every entry's value here was drawn from patent US20250388696A1.
